# Measured target: UniProt:Q12809
# Sequence (Q12809 whole entry): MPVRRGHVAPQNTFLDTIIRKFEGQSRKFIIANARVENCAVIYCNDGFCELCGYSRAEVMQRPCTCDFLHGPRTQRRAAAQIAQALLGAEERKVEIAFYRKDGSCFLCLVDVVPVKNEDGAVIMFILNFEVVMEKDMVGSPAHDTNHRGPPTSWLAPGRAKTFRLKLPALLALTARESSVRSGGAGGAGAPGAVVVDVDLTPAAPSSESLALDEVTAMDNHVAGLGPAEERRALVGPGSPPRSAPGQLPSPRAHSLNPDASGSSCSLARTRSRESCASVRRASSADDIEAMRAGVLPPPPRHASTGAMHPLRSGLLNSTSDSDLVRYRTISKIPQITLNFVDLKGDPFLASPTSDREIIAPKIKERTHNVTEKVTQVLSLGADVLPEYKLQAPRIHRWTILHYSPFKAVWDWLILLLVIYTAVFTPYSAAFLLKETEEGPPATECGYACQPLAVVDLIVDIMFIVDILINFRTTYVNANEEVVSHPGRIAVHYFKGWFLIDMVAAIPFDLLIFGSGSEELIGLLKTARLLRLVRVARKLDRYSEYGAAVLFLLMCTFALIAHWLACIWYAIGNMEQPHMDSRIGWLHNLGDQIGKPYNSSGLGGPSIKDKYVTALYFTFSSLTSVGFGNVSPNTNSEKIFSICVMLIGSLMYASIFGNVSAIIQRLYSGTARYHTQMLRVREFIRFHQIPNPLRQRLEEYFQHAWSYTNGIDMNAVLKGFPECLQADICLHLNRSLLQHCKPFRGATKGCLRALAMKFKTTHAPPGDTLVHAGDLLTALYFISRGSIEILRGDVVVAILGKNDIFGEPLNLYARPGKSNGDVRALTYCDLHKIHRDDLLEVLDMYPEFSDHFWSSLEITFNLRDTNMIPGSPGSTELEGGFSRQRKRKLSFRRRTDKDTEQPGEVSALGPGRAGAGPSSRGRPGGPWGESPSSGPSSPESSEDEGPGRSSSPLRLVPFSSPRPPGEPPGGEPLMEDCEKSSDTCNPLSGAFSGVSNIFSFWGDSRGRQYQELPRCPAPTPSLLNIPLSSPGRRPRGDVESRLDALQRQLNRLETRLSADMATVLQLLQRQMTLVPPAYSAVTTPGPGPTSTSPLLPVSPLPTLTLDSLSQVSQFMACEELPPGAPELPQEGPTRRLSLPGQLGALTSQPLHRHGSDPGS
# Protocol details: hERG tail current recording, Rapid ICE automated patch-clamp
# Format: cell-based
# Assay context: HEK293 cells stably transfected with hERG
# pIC50 hERG >= 6 gives Condition met, anything below gives Condition not met

Enquiry: Check this molecule for pIC50 hERG at or above 6: Fc1cccc(Oc2cccc(N3CCC4(CC3)CNCCO4)c2)c1
Return: Condition not met

Enquiry: Please indicate if the recorded pIC50 hERG for Fc1cccc(Oc2cc(F)cc(N3CCC4(CC3)CNCCO4)c2F)c1 meets or exceeds 6.
Return: Condition not met

Enquiry: Decide: pIC50 hERG of Cl.Fc1cccc(Oc2cc(C3CC3)nc(N3CCC4(CC3)CNCCO4)n2)c1 >= 6?
Return: Condition not met

Enquiry: hey, is pIC50 hERG for this one >= 6? Cl.Fc1ccccc1Oc1cc(C(F)(F)F)nc(N2CCC3(CC2)CNCCO3)n1
Return: Condition not met

Enquiry: Could you verify whether the entry O=S1(=O)CCNCC12CCN(c1cc(F)c(F)cc1Oc1cccc(F)c1)CC2 shows pIC50 hERG of no less than 6?
Return: Condition not met

Enquiry: Record Fc1cccc(Oc2cc(F)c(F)c(N3CCC4(CC3)CNCCO4)c2)c1 ; criterion: pIC50 hERG no lower than 6. Met?
Return: Condition not met

Enquiry: Has Fc1cccc(Oc2cc(N3CCC4(CC3)CNCCO4)ccc2F)c1 a recorded pIC50 hERG greater than or equal to 6?
Return: Condition met

Enquiry: hey, is pIC50 hERG for this one >= 6? Cc1cccc(Oc2cc(C)nc(N3CCC4(CC3)CNCCO4)n2)c1.Cl
Return: Condition not met

Enquiry: Confirm if pIC50 hERG reported for the molecule Cc1cc(Oc2ccccc2)nc(N2CCC3(CC2)CNCCO3)n1.Cl is 6 or above.
Return: Condition not met

Enquiry: Reported pIC50 hERG reaches at least 6 for Cc1cc(Oc2cccc(C(F)(F)F)c2)nc(N2CCC3(CC2)CNCCO3)n1.Cl ?
Return: Condition not met

Enquiry: Quick check: does COc1cc(Oc2cccc(F)c2)nc(N2CCC3(CC2)CNCCO3)n1.Cl have pIC50 hERG greater than or equal to 6?
Return: Condition not met

Enquiry: Please tell me: is the molecule Fc1cccc(Oc2cccc(N3CCC4(CC3)CNCCO4)c2F)c1 at or over 6 in terms of pIC50 hERG?
Return: Condition not met

Enquiry: Can Fc1c(Oc2ccccc2)cccc1N1CCC2(CC1)CNCCO2 be said to have pIC50 hERG at or above 6?
Return: Condition not met

Enquiry: Please indicate if the recorded pIC50 hERG for Cc1cc(Oc2cccc(C#N)c2)nc(N2CCC3(CC2)CNCCO3)n1.Cl meets or exceeds 6.
Return: Condition met

Enquiry: Check this molecule for pIC50 hERG at or above 6: Fc1cccc(Oc2cc(F)cc(N3CCC4(CCNC4)CC3)c2)c1
Return: Condition met

Enquiry: Please check the record Fc1cccc(Oc2cc(F)cc(N3CCC4(CC3)CNCCO4)c2)c1 and state if its pIC50 hERG is at or above 6.
Return: Condition met

Enquiry: Test whether the molecule Cl.Fc1cccc(Oc2cc(C(F)(F)F)nc(N3CCC4(CCNCC45OCCO5)C3)n2)c1 (stereo not drawn) records pIC50 hERG of 6 or higher.
Return: Condition not met

Enquiry: Check this molecule for pIC50 hERG at or above 6: Cl.N#Cc1cccc(Oc2cc(C(F)(F)F)nc(N3CCC4(CC3)CNCCO4)n2)c1
Return: Condition met

Enquiry: Check this molecule for pIC50 hERG at or above 6: O=C1NCC2(CCN(c3nc(Oc4cccc(F)c4)cc(C(F)(F)F)n3)CC2)O1
Return: Condition not met
